Test system: Klebsiella pneumonia ATCC 43816
Assay: Minimal Inhibitory Concentration (MIC) broth dilution assay
Assay type: cell-based
Details: Klebsiella pneumoniae, ATCC43816, 20 h, read-out: MIC Klebsiella pneumoniae ATCC43816
Experimental: The antibacterial activity of the compounds of the present invention was evaluated against the commonly used quality control strain Escherichia coli ATCC 25922 and the rifampin-resistant mutant strain Klebsiella pneumonia ATCC 43816. […] The in vitro potency of compounds to inhibit Escherichia coli (ATCC 25922) and Klebsiella pneumonia (ATCC 43816) growth was assessed by the MIC (Minimal Inhibitory Concentration) broth dilution method. […]
measured_quantity: MIC

>>> result("NCCCNC1CCc2cc(C(=O)Nc3ccc(S(=O)(=O)N4CCN(c5cc(C(F)(F)F)cc(Cl)n5)CC4)cc3)ccc21 (stereo not drawn) [Example 064]")
"4.2 µg/mL"
>>> result("NCCCN1CCC(c2cccc(C(=O)Nc3ccc(S(=O)(=O)N4CCN(c5cc(C(F)(F)F)cc(Cl)n5)CC4)cc3)c2)C1 (stereo not drawn) [Example 067]")
"1 µg/mL"
>>> result("Cn1ncc(C(=O)N2CCc3cc(S(=O)(=O)N4CCN(c5cc(C(F)(F)F)cc(Cl)n5)CC4)ccc32)c1C(=O)O [Example 035]")
"7.5 µg/mL"
>>> result("O=C(Nc1ccc(S(=O)(=O)N2CCN(c3cc(C(F)(F)F)cc(Cl)n3)CC2)cc1)c1ccc2c(c1)CNC2 [Example 046]")
"0.47 µg/mL"
>>> result("NC1Cc2ccc(C(=O)Nc3ccc(S(=O)(=O)N4CCN(c5cc(C(F)(F)F)cc(Cl)n5)CC4)cc3)cc2C1 (stereo not drawn) [Example 055]")
"0.91 µg/mL"
>>> result("CCc1cc(C(F)(F)F)cc(N2CCN(S(=O)(=O)c3ccc(NC(=O)c4ccc(CNCCCN)cc4)cc3)CC2)n1 [Example 011]")
"7.6 µg/mL"
>>> result("Cc1cc(C(F)(F)F)cc(N2CCN(S(=O)(=O)c3ccc(NC(=O)c4cnc5c(c4)CNC5)cc3)CC2)n1 [Example 045]")
"3.6 µg/mL"
>>> result("NCc1ccc(O)c(C(=O)Nc2ccc(S(=O)(=O)N3CCN(c4cc(C(F)(F)F)cc(Cl)n4)CC3)cc2)c1 [Example 056]")
"3.8 µg/mL"
>>> result("O=C(CN1CCNCC1)Nc1ccc(S(=O)(=O)N2CCN(c3cc(C(F)(F)F)cc(Cl)n3)CC2)cc1 [Example 040]")
"8.3 µg/mL"
>>> result("NCCC(N)C(=O)Nc1cccc(C(=O)Nc2ccc(S(=O)(=O)N3CCN(c4cc(C(F)(F)F)cc(Cl)n4)CC3)cc2)c1 (stereo not drawn) [Example 057]")
"2 µg/mL"
>>> result("NCCCNCc1ccc(C(=O)Nc2ccc(S(=O)(=O)N3CCN(c4cc(C(F)(F)F)c(Cl)cn4)CC3)cc2)cc1 [Example 003]")
"3.8 µg/mL"
>>> result("N#Cc1cc(C(F)(F)F)cc(N2CCN(S(=O)(=O)c3ccc(NC(=O)c4ccc(CCNCCCN)cc4)cc3)CC2)n1 [Example 016]")
"3.8 µg/mL"
>>> result("O=C(O)c1ccccc1C(=O)N1CCc2cc(S(=O)(=O)N3CCN(c4cc(C(F)(F)F)cc(Cl)n4)CC3)ccc21 [Example 042]")
"2 µg/mL"
>>> result("O=C(c1cnn2cccnc12)N1CCc2cc(S(=O)(=O)N3CCN(c4cc(C(F)(F)F)cc(Cl)n4)CC3)ccc21 [Example 034]")
"0.92 µg/mL"
>>> result("NC1CCC12CN(CCc1ccc(C(=O)Nc3ccc(S(=O)(=O)N4CCN(c5cc(C(F)(F)F)cc(Cl)n5)CC4)cc3)cc1)C2 (stereo not drawn) [Example 070]")
"2.4 µg/mL"
>>> result("NCCCNCc1ccc(C(=O)Nc2ccc(S(=O)(=O)N3CCN(c4cc(C(F)(F)F)ccn4)CC3)cc2)cc1 [Example 002]")
"5.4 µg/mL"
>>> result("NCCCNCc1ccc(C(=O)Nc2ccc(S(=O)(=O)N3CCN(c4cc(C(F)(F)F)nc(Cl)n4)CC3)cc2)cc1 [Example 005]")
"7.7 µg/mL"
>>> result("NCCC1CCCN1Cc1ccc(C(=O)Nc2ccc(S(=O)(=O)N3CCN(c4cc(C(F)(F)F)cc(Cl)n4)CC3)cc2)cc1 (stereo in doubt) [Example 072]")
"2 µg/mL"
>>> result("O=C(c1cnn2c1CNCC2)N1CCc2cc(S(=O)(=O)N3CCN(c4cc(C(F)(F)F)cc(Cl)n4)CC3)ccc21 [Example 038]")
"7.4 µg/mL"
>>> result("Cc1cc(C(F)(F)F)nc(N2CCN(S(=O)(=O)c3ccc(NC(=O)c4cnc5c(c4)CNC5)cc3)CC2)n1 [Example 044]")
"1.8 µg/mL"
>>> result("NCCCNCc1cccc(C(=O)Nc2ccc(S(=O)(=O)N3CCN(c4cc(C(F)(F)F)cc(Cl)n4)CC3)cc2)c1 [Example 024]")
"0.96 µg/mL"
>>> result("COc1cc(S(=O)(=O)N2CCN(c3cc(C(F)(F)F)cc(Cl)n3)CC2)ccc1NC(=O)c1cccc(CNCCCN)c1 [Example 030]")
"8 µg/mL"
>>> result("O=C(Nc1ccc(S(=O)(=O)N2CCN(c3cc(C(F)(F)F)cc(Cl)n3)CC2)cc1)c1cccc(N2C[C@H]3CN[C@H]3C2)c1 (stereo in doubt) [Example 052]")
"2.3 µg/mL"
>>> result("O=C(Nc1ccc(S(=O)(=O)N2CCN(c3cc(C(F)(F)F)cc(Cl)n3)CC2)cc1)c1cccc(CNCC2CCNCC2)c1 [Example 076]")
"2.7 µg/mL"
>>> result("COC(=O)c1cc(Cl)nc(N2CCN(S(=O)(=O)c3ccc(NC(=O)c4cccc(CNCCCN)c4)cc3)CC2)c1 [Example 019]")
"5.2 µg/mL"
>>> result("NCCCNCc1ccc(C(=O)Nc2ccc(S(=O)(=O)N3CCN(c4cc(C(F)(F)F)nc(N)n4)CC3)cc2)cc1 [Example 006]")
"15 µg/mL"
>>> result("NCCOc1cccc(C(=O)Nc2ccc(S(=O)(=O)N3CCN(c4cc(C(F)(F)F)cc(Cl)n4)CC3)cc2)c1 [Example 048]")
"0.97 µg/mL"
